Counter-ions that a name gives are not always drawn.
quantity-name: melting point

Solved entries (count: 3):
compound | melting point
CCc1cn(C)c(C2Cc3ccccc3N2C(C)=O)n1 (stereo not shown) | 105 to 106 °C
NCC(=O)N1c2ccccc2CC1c1nc2cc(C(=O)O)ccc2[nH]1 (stereo not shown) (as salt: trifluoroacetate) (hydrate or solvate) [Compound 62] | 208 to 211 °C
CCc1cnc(C2Cc3ccccc3N2C(=O)c2ccccc2C(=O)O)[nH]1 (stereo not shown) (as salt: trifluoroacetate) | 98 to 103 °C

*Q* Name the reported melting point value associated with the compound CCCc1cnc(C2Cc3ccccc3N2C(=O)C(N)CC)[nH]1 (stereo not shown) (as salt: HCl) (hydrate or solvate) [Compound 15, dihydrochloride dihydrate]
*A* 132 to 140 °C
